Taken from the Human Domainome abundance scans (Beltran et al. 2025).

B1: Androgen receptor, residues 557 to 632; numbered along this chain, P10275 (parent)
chain: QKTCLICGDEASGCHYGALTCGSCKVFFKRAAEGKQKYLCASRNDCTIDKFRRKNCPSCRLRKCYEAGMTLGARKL

variants of: B1; assay: abundance fitness (aPCA) (normalised: wild type 0, dead -1); higher = more abundant; growth selection in yeast, the domain comes from the species named; conditions: Homo sapiens
Give measured abundance fitness for each item. Keep answers brief.
// return just the number, without any unit appended

The recorded abundance fitness for entry K37C equals -0.185

Briefly, abundance fitness measured for N55V : -0.151

# abundance fitness of K29H = -0.024

Reported abundance fitness of L39R : -0.006

For K63N the variant record lists abundance fitness as -0.127

// sample T47F , its abundance fitness was -0.077

Lab note: measured abundance fitness of S12A was -0.046

The variant listed as K50G shows abundance fitness equal to -0.146

abundance fitness for A31I is -0.387

For C56W the variant record lists abundance fitness as -0.964

Documented abundance fitness of H15R : -0.221

abundance fitness measured on V26T = -0.002

According to the records, this variant Y65N displays abundance fitness of -0.062

Item: K63T | abundance fitness: -0.033

Entry under test: R52K . Its abundance fitness was -0.033

Reported abundance fitness ( C24V ) = -0.907

For this variant ( C56F ), measured abundance fitness is -0.938

get_value(item= Q1A , readout=abundance fitness) returns -0.144

Data point: K63L ; abundance fitness = -0.111

Record N55Q . Reported abundance fitness: -0.076

So, A31K ? Its abundance fitness was -0.627

Record summary for C21V : reported abundance fitness = -0.754

// sample Q36W , its abundance fitness was -0.251

Record summary for K37G : reported abundance fitness = -0.08

The recorded abundance fitness for entry S58W equals -0.458

Form: variant = C64A ; abundance fitness = -0.306

// abundance fitness value for Q1Y : 0.172

// F27E : abundance fitness value = -0.73

Entry K50I ; abundance fitness = -0.26

GET /value?item= E33V &field=abundance fitness returns -0.089

Q36S has a reported abundance fitness of -0.094

Please fill in: abundance fitness reported for R30T = 0.01

# abundance fitness (variant: D49I ) is -0.283

Entry H15W — recorded abundance fitness = 0.097

Form: variant = C7Y ; abundance fitness = -0.583

According to the records, this variant Y16A displays abundance fitness of -0.397

Entry V26R — recorded abundance fitness = 0.019

# abundance fitness of G13T = -0.057

abundance fitness measured on G13K = -0.229

So, K25E ? Its abundance fitness was 0.044

Lab note: measured abundance fitness of Q1S was -0.058

The reported value for T20E in terms of abundance fitness is -0.825

Item: G17N | abundance fitness: -0.061

Entry R30P , abundance fitness reported as -0.395

// abundance fitness value for C7V : -1.2

Entry under test: S23T . Its abundance fitness was -0.233
